- System: A498
- Procedure summary: Cancer cell proliferation, MTT assay
- Type: cell-based
- Assay context: Homo sapiens, 48 hours
Metric name: pIC50
Scale note: pIC50 = -log10(concentration in M).

Recall the reported pIC50 of O=C(/C=C/c1ccc2ccc(C(F)(F)F)cc2n1)c1ccncc1 [PFK-158] on A498 and write it down.
5.45

----------
# key: entry, value: IC50
- Assay target: PFKFB3 (Homo sapiens, UniProt Q16875)
- Sequence (Q16875 whole entry): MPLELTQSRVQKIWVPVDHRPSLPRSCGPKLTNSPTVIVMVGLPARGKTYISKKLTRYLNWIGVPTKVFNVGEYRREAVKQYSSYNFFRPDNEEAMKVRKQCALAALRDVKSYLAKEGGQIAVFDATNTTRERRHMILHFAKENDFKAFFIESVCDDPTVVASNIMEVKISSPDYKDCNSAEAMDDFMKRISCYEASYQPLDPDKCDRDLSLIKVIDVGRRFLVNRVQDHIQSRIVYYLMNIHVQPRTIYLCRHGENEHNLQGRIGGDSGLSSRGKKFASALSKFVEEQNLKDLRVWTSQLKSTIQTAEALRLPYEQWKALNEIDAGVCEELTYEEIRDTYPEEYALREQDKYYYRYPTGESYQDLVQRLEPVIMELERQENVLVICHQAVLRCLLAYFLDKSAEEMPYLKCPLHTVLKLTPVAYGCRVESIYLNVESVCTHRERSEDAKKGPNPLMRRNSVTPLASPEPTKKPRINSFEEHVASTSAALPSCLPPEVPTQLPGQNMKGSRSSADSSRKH
- Procedure summary: Enzymatic activity of recombinant PFKFB3, ADP-Glo assay
- Assay type: biochemical
- Assay context: Table 1; read-out: IC50, Enzymatic activity of PFKFB3, ADP Glo Assay
Only the number, expressed in µM, is required.

Recall the reported IC50 of `O=C(/C=C/c1ccc2ccc(C(F)(F)F)cc2n1)c1ccncc1` on PFKFB3 (Homo sapiens, UniProt Q16875) and write it down.
0.137

Moving on to the next compound.
Recall the reported IC50 of `O=C(/C=C/c1ccc2ccccc2n1)c1ccncc1` on PFKFB3 (Homo sapiens, UniProt Q16875) and write it down.
0.318
